// provenance: patent US7745492B2

# STUDY TARGET: Delta opioid (Mus musculus)
# Construct: NG108-15 cell membranes were purchased from Applied Cell Sciences (Rockville, Md.)
# Sequence (P32300 whole entry): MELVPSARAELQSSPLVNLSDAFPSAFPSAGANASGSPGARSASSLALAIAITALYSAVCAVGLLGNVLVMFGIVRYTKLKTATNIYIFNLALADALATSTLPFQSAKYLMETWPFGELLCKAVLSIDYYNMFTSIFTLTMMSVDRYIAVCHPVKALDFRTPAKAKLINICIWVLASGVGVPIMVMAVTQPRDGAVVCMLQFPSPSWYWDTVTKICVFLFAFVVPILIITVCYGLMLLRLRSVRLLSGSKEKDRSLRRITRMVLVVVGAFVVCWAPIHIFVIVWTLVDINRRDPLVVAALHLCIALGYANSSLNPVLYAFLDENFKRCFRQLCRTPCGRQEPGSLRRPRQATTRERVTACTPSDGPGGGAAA
# METHOD DESCRIPTION: [35S]GTPγS binding assay in NG108-15 cell membrane
# CONDITION: NG108-15 cell membranes
pEC50: −log10 of the molar value.
METRIC: pEC50

MOLECULE | REPORTED VALUE
CN(C)C[C@H]1CCCC[C@]1(O)c1cccc(C(N)=O)c1 (racemic) [Cpd 2] | 5.25

----------
# STUDY TARGET: mu opioid receptor (Rattus norvegicus, UniProt P33535)
# Sequence (P33535 whole entry): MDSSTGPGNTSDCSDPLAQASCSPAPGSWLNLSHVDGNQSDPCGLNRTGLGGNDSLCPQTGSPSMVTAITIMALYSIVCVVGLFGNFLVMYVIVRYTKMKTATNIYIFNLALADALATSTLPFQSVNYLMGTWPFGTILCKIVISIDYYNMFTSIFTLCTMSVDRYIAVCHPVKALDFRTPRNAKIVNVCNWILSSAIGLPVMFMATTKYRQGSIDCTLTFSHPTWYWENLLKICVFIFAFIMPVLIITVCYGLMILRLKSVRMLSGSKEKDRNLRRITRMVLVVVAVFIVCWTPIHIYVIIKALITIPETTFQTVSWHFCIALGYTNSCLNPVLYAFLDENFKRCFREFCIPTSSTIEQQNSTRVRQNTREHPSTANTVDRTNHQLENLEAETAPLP
pKi: −log10 of the molar value.
Would you please tag the item t when its pKi is 6 or above, and f when it is below?

COMPOUND | DISCRETE LABEL
CCN(CC)C(=O)c1cccc([C@@]2(O)CCCC[C@@H]2CN(C)C)c1 (racemic) | f
CN(C)C[C@H]1CCCC[C@]1(O)c1cccc(C(=O)NC2CC2)c1 (racemic) | f
CN(C)C[C@H]1CCCC[C@]1(O)c1cccc(C(N)=O)c1 (single isomer, unassigned) [Cpd 3] | t
CN(C)C[C@H]1CCCC[C@]1(O)c1cccc(C(N)=O)c1 (racemic) [Cpd 2] | t
CNC(=O)c1cccc([C@@]2(O)CCCC[C@@H]2CN(C)C)c1 (racemic) | f
